Assay info: yeast display, Sf9 membrane polyspecificity reagent, FACS + sequencing; frameworks hold sequencing errors
Endpoint: polyreactivity (PSR sort gate)

Seq string	Reported value
QVQLVESGGGLVQAGGSLRLSCAASGFIFRKNAMGWYRQAPGKERELVAANSQSGGSTYYADSVKGRFTISRDNAKNTVYLQMNSLKPEDTAVYYCAARYDLPNWVGGREYNYWGQGTQVTVSS	high polyreactivity
QVQLVESGGGLVQAGGSLRLSCAASGIIFSTYAMGWYRQAPGKERELVAAITSTGSTNYADSVKGRFTISRDNAKNTVYLQMNSLKPEDTAVYYCAARYAGPSPTDTGHDYWGQGTQVTVSS	low polyreactivity
QVQLVESGGGLVQAGGSLRLSCAASGFTISPYAMGWYRQAPGKERELVAVISKSSTRTYYADSVKGRFTISRDTAKNTVYLQMNSLKPEDTAVYYCNAGWNFVSGYYYWGQGTQVTVSS	high polyreactivity
QVQLVESGGGLVQAGGSLRLSCAASGSTFYNYVMGWYRQAPGKERELVAAINWSGCRTYYADSVKGRFTISRDNAKNTVYLQMNSLKPEDTAVYYCAAGYTLPWYKGFDYWGQGTQVTVSS	high polyreactivity
QVQLVESGGGLVQAGGSLRLSCAASGRIVYIYAMGWYRQAPGKERELVAAISSGGTTNYADSVKGRFTISRDNAKNTVYLQMNSLKPEDTAVYYCAAYWRSRNRFYWGQGTQVTVSS	high polyreactivity
QVQLVESGGGLVQAGGSLRLSCAASGIIYAANPMGWYRQAPGKERELVAAISKNGGITYYADSVKGRFTISRDNAKNTVYLQMNSLKPEDTAVYYCAARWRQTRRYYYWGQGTQVTVSS	high polyreactivity
QVQLVESGGGLVQAGGSLRLSCDASGRIFSPNTMGWYRQAPGKERELVAAISRGGSTYADSVKGRFTISRDNAKITVYLQMNSLKPEDTAVYYCNARYGRYYGAYEYWGQGTQVTVSS	high polyreactivity
QVQLVESGGGLVQAGGSLRLSCAASGFTFIDYAMGWYRQAPGKERELVAAISKRGGSTYYADSVKGRFTISRDNAKNSVYLQMNSLKPEDTAVYYCNAKAYHQGYLTRDDYWGQGTQVTVSS	high polyreactivity
QVQLVESGGGLVQAGGSLRLSCAASGFTFNYYAMGWYRQAPGKERELVAAITWRSGRTSYADSVKGRFTISRDNAKNTVYLQMNSLKPEDTAVYYCAKYTIYYGLTRYGYWGQGTQVTVSS	high polyreactivity
QVQLVESGGGLVQAGGSLRLSCAASGITFSHNAMGWYRQAPGKERELVAAITRSGGSTYYADSVKGRFTISRDNAKNTVYLQMNSLKPEDTAVYYCATEDYYRQYGYWSLSRMDHWGQGTQVTVSS	low polyreactivity
QVQLVESGGGLVQAGGSLRLSCAASGRIFYVYTMGWYRQARGKERELVAAISWSGGSTHYADSVKGRFTISRDNAKNTVYLQMNSLKTEYTAVYYCNKGVVSRVAFEYWGQGTQVTVSS	low polyreactivity

Taken from the nanobody polyreactivity screen of Harvey et al. (2022).
